- Measured On: BRAF V600E (Homo sapiens, UniProt P15056, V600E)
- Construct: endogenous C-terminal HiBiT fusion tag on BRAF V600E allele; endogenous in cells; host or cells: A375 clone 1F10 (CRISPR-Cas9 knock-in of the HiBiT tag; parental A375 from ATCC)
- Sequence (P15056 whole entry V600E, the tested form may be a part): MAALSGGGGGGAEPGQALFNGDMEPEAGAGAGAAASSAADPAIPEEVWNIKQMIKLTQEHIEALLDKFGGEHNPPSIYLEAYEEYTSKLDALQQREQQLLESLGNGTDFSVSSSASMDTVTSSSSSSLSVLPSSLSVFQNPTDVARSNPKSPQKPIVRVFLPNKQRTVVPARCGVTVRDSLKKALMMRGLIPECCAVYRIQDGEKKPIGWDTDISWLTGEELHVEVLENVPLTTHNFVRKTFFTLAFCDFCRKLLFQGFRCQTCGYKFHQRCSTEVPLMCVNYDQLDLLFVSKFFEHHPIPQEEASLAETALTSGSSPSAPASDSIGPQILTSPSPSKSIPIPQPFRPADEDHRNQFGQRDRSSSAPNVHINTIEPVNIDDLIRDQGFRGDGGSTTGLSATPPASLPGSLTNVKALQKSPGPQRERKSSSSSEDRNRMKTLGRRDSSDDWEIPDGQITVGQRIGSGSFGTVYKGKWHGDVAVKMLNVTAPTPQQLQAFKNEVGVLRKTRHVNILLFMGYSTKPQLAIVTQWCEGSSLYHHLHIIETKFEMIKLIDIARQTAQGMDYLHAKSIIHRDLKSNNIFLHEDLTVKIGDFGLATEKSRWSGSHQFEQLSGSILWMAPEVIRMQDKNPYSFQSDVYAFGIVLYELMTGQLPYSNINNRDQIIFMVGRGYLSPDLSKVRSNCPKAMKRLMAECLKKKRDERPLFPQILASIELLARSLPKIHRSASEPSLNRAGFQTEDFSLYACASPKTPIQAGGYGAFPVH
- Protocol Notes: BRAF HiBiT degradation assay, C-terminal HiBiT-tagged BRAF V600E A375 cells (clone 1F10), Nano-Glo HiBiT Lytic assay
- Format: cell-based
- Measurement Context: A375 (BRAF V600E); DC50 at 50%: fitted conc. at Y=50
Quick list: DC50 per entry.

For orientation, consider the following solved cases.
CCCS(=O)(=O)Nc1cccc(-c2nc(C(C)(C)C)sc2-c2ccnc(Nc3ccc(C4CCN(C(=O)COc5ccc6c(c5)C(=O)N(C5CCC(=O)NC5=O)C6=O)CC4)cc3)n2)c1F (racemic) [Compound 176] = 10 to 50 nM
CCCS(=O)(=O)Nc1cccc(-c2cn(-c3ccc(N4CCN(CC5CCN(c6ccc([C@H]7CCC(=O)NC7=O)cc6)CC5)CC4)cc3)nc2-c2ccncc2)c1F [Compound 16] = 10 to 50 nM
CCCS(=O)(=O)Nc1cccc(-c2nc(C(C)(C)C)sc2-c2ccnc(Nc3cnn(CC4CCN(C(=O)CN5CCc6cc(C7CCC(=O)NC7=O)ccc6C5)CC4)c3)n2)c1F (racemic) [Compound 119] = < 10 nM

CCCS(=O)(=O)Nc1cccc(-c2nc(C3CCC4(CC3)CCN(C(=O)CN3CCN(c5ccc6c(c5)C(=O)N(C5CCC(=O)NC5=O)C6=O)CC3)CC4)sc2-c2ccnc(N)n2)c1F (racemic) [Compound 231] yielded DC50 of < 10 nM

Entry CCCS(=O)(=O)Nc1cccc(-c2nc(C(C)(C)C)sc2-c2ccnc(NCC(C)(C)C3CCN(CC4CCN(c5ccc(C(=O)N[C@H]6CCC(=O)NC6=O)nc5)CC4)CC3)n2)c1F [Compound 146] ; DC50 = 50 to 500 nM

* * *

- Measured On: BRAF G469A (Homo sapiens, UniProt P15056, G469A)
- Construct: Horizon Discovery (HCT-116 BRAF−/− cells); host or cells: HCT-116 BRAF−/− cells, clone 34, lentiviral transduction
- Sequence (P15056 whole entry G469A): as the sequence (P15056 whole entry V600E, the tested form may be a part) above, with G469A, E600V counted along it
- Protocol Notes: BRAF HiBiT degradation assay, C-terminal HiBiT-tagged BRAF G469A overexpressed in HCT-116 BRAF−/− cells (clone 34), Nano-Glo HiBiT Lytic assay
- Type: cell-based
- Measurement Context: BRAF G469A (Class 2), HCT-116 BRAF−/− cells; observed Dmax relative to DMSO control
Measurement Type: Dmax

Below, each entry is followed by its recorded Dmax result.
O=C1CCC(c2ccc(N3CCC(CN4CCN(c5ccc(-n6cc(-c7cc(Cl)cc(NS(=O)(=O)N8CC[C@@H](F)C8)c7F)c(-c7ccncc7)n6)c(F)c5)CC4)CC3)nc2)C(=O)N1 (mixture of isomers) = > 70%
O=C1CC[C@H](c2ccc(N3CCC(CN4CCN(c5ccc(-n6cc(-c7cc(Cl)cc(NS(=O)(=O)N8CCCC8)c7F)c(-c7ccncc7)n6)c(F)c5)CC4)CC3)cc2)C(=O)N1 = 30 to 70%
O=C1CCN(c2ccc(N3CCC(CN4CCN(c5ccc(-n6cc(-c7cc(Cl)cc(NS(=O)(=O)N8CCCC8)c7F)c(-c7ccncc7)n6)nc5)CC4)CC3)cc2)C(=O)N1 = 30 to 70%
O=C1CCC(c2ccc(N3CCC(CN4CCN(c5ccc(-n6cc(-c7cc(C(F)F)cc(NS(=O)(=O)N8CCCC8)c7F)c(-c7ccncc7)n6)c(F)c5)CC4)CC3)nc2)C(=O)N1 (racemic) = > 70%
O=C1CCC(c2ccc(N3CCC(CN4CCN(c5ccc(-n6cc(-c7cc(Cl)cc(NS(=O)(=O)N8CCCC8)c7F)c(-c7ccncc7)n6)cc5)CC4)CC3)nc2)C(=O)N1 (racemic) = > 70%

Attention now shifts to the item below.
Lab book: Dmax of O=C1CC[C@H](c2ccc(N3CCC(CN4CCN(c5ccc(-n6cc(-c7cc(C(F)F)cc(NS(=O)(=O)N8CCCC8)c7F)c(-c7ccncc7)n6)cc5)CC4)CC3)cc2)C(=O)N1 noted as > 70%
